The origin of these recorded values is PubChem BioAssay (NCI).

# Experimental protocol: NCI Yeast Anticancer Drug Screen. Data for the mec2-1 strain (AID 157)
# Conditions used: S. cerevisiae mec2-1 strain, at 50.0 µM, hits give high values
# Procedure: Growth inhibition of yeast strains with defined genetic alterations is measured as a screen for potential anti-cancer activity. Selected strains with alterations in DNA damage repair or cell cycle control were exposed to compounds and growth inhibition was measured relative to vehicle treated controls. The strain used in this assay is mec2-1
About 79,000 compounds went through this panel and 15% of them were active in at least one assay; those are over-represented in the sample as a whole.
Value kind: growth inhibition (%)

Molecule	Value units	Endpoint result
CN(CCc1ccccn1)c1ccc2c(c1)C(=O)c1ccccc1-2	%	13.4
CCCN(CCC)C1=Nc2ccccc2-n2cnnc2C1	%	3.45
O=S(=O)(O)c1ccccc1O	%	-3.35
Cc1cc2c(cc1C)NC1=C(N2)OC(c2cccc(O)c2)C1=O (stereo unspecified)	%	-16.9
CC(=O)Nc1ccc(S(=O)(=O)NNC(=O)NNS(=O)(=O)c2ccc(NC(C)=O)cc2)cc1	%	-7.2
O=S1(=O)OCCOS(=O)(=O)C1I	%	-30.2
